Reported zone of inhibition at 10000 µg/mL values for the following compounds.
system: Micrococcus luteus; assay: Antibacterial activity against Sarcina lutea ATCC 9341 at 10 mg/ml after 24 hrs by agar diffusion assay; assay type: functional; conditions: ATCC 9341, 24 h, read-out: DIZ
quantity.kind: zone of inhibition at 10000 µg/mL

smi: C=C1CC[C@H]2C(C)(C)CCC[C@]2(C)[C@H]1CC(=O)N(C(=O)C[C@H]1C(=C)CC[C@H]2C(C)(C)CCC[C@]12C)c1ncccn1
meas.value: 0 mm
//
smi: C=C1CC[C@H]2C(C)(C)CCC[C@]2(C)[C@H]1CC(=O)Nc1cnccn1
meas.value: 0 mm
//
smi: C=C1CC[C@H]2C(C)(C)CCC[C@]2(C)[C@H]1CC(=O)Nc1ccncn1
meas.value: 18 mm
//
smi: C=C1CC[C@H]2C(C)(C)CCC[C@]2(C)[C@H]1CC(=O)N(C(=O)NC1CCCCC1)C1CCCCC1
meas.value: 0 mm
//
smi: C=C1CC[C@H]2C(C)(C)CCC[C@]2(C)[C@H]1CC(=O)Nc1ncccn1
meas.value: 19 mm

FYI, the data here is from ChEMBL document CHEMBL2429845.
